ASSAY_SYSTEM: Cytochrome P450 1A2 (Homo sapiens) (UniProt P05177)
Sequence (P05177 whole entry, looked up): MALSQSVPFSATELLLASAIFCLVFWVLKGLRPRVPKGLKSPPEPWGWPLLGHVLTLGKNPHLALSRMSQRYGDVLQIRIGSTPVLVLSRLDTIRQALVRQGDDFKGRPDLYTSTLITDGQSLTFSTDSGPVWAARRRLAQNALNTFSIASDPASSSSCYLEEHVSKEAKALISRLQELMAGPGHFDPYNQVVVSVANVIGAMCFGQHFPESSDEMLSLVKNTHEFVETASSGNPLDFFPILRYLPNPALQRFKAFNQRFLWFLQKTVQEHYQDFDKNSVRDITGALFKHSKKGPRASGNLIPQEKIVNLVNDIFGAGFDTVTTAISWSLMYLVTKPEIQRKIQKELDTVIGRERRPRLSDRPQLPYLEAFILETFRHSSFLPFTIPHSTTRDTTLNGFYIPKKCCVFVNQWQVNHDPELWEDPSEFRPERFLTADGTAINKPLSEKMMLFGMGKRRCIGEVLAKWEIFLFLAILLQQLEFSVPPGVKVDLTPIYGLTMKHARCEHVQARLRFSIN
PROTOCOL_TEXT: Cytochrome panel assay with activity outcomes
TEST_CONDITIONS: recombinant CYP, pro-luciferin dealkylation, luminescence, p450-cyp1a2; series mostly up to 57.1 µM
Hit rate of the full screen: of about 16,000 compounds, about 5,700 (36%) were called active. Roughly 24% stayed inconclusive and do not appear here. The call rests on the fitted dose curve; in most records, active means well fitted curve in the direction sought with a large enough effect; inconclusive means small, poorly fitted or top-dose-only effect, or effect the other way; inactive means no such curve, though single readings can be large or run the other way. The list shows a part of the results.
Outcome (select one): active, inactive

{"columns": ["MOLECULE", "ASSAY_SYSTEM", "DISCRETE_LABEL"],
 "data": [
  ["COc1ccc(C2C(C(=O)N3CCOCC3)c3ccccc3C(=O)N2c2ccc(OC)cc2)cc1 (configuration not stated)", "Cytochrome P450 1A2 (Homo sapiens) (UniProt P05177)", "inactive"],
  ["C=C(C)C1Cc2nc(N)nc(C)c2C1 (configuration not stated)", "Cytochrome P450 1A2 (Homo sapiens) (UniProt P05177)", "active"],
  ["COCCn1c(=O)c(-c2cccs2)nc2cnc(N(C)C)nc21", "Cytochrome P450 1A2 (Homo sapiens) (UniProt P05177)", "active"],
  ["Oc1cccc2ccc(SSc3ccc4cccc(O)c4n3)nc12", "Cytochrome P450 1A2 (Homo sapiens) (UniProt P05177)", "active"],
  ["COc1cc(/C=C2/C(=N)N3OC(C)=CC3=NC2=O)ccc1OCCOc1ccc(C)cc1", "Cytochrome P450 1A2 (Homo sapiens) (UniProt P05177)", "inactive"],
  ["CCOc1cc(/C=C2/C(=N)N3C=CSC3=NC2=O)ccc1OCCCOc1ccccc1C", "Cytochrome P450 1A2 (Homo sapiens) (UniProt P05177)", "inactive"]
]}

Outcome logged for "C[C@]1(OC(=O)/C=C\c2ccccc2)C[C@@H](O)[C@@]2(O)C=CO[C@@H](O[C@H]3O[C@@H](CO)[C@@H](O)[C@@H](O)[C@@H]3O)[C@H]21" in this assay:
inactive

Outcome logged for "CCOC(=O)c1oc2ccccc2c1NC(=O)c1ccc(S(=O)(=O)N(C)C)cc1" in this assay:
active

Outcome logged for "COc1ccc(Cl)cc1N=Nc1ncc[nH]1" in this assay:
active

Outcome logged for "CN(C)Cc1ccccc1-c1ccc2ncnc(N(C)Cc3ccco3)c2c1" in this assay:
active
